The reader will find reported superoxide response (% of plate) values listed item by item below.
# experimentNotes: superoxide lowering in aged yeast cells, pilot screen, validation compound set (AID 2706);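 also: yeast exposed to compound for one week at 30 degrees C before staining; 100% = mean of all compound wells on the same plate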
# reportedConditions: S. cerevisiae aging, superoxide DHE fluorescence; at 10 µM, stronger effect = lower value
readout: superoxide response (% of plate) (%)

>>> observedresult("CCN(CC)C1=C(Cl)C(=O)C(Cl)C12OCCO2 (stereo not drawn)")
94.6
>>> observedresult("Cc1ccccc1NC(=O)C1c2ccccc2Oc2ccccc21")
86.5
>>> observedresult("COc1ccc(CCN2CCC(Nc3nc4ccccc4n3Cc3ccc(F)cc3)CC2)cc1")
93.2
>>> observedresult("CC(C)NC[C@@H](O)c1ccc(O)c(O)c1")
97.4
>>> observedresult("CN(C)C(=O)C(CCN1CCC(O)(c2ccc(Cl)cc2)CC1)(c1ccccc1)c1ccccc1")
86.8
>>> observedresult("COc1ccc2oc(=O)c(C(=O)N3CCN(c4ccccc4)CC3)cc2c1")
110
>>> observedresult("CC1(C)Cc2nc3oc4c(NCc5ccccc5)ncnc4c3cc2CO1")
95.3
>>> observedresult("O=P(c1ccccc1)(c1ccccc1)c1nc(-c2ccc(Cl)cc2)oc1N1CCOCC1")
135

###

The reader will find reported GFP response, % of DMSO values listed item by item below.
# experimentNotes: modulators of CIT2-GFP expression in yeast, confirmation, S. cerevisiae, GFP fusion, cherry picks, mother/daughter gates (AID 2274)
# reportedConditions: S. cerevisiae CIT2-GFP strain, flow cytometry, 3 h; measured here: daughter cell gate; at 10 µM; stronger effect = higher value
readout: GFP response, % of DMSO (%)

>>> observedresult("CCN(CC(=O)NC(C)(C)C)C(=O)COc1c(Cl)cc(Cl)c2ccc(C)nc12")
111
>>> observedresult("CCC(C(=O)O)n1nc(-c2ccccc2)c2cc(Cl)ccc21 (stereo not given)")
99.3
>>> observedresult("COc1ccc(N2CCN(C(=O)C3CCCN(S(=O)(=O)c4ccc(C)cc4)C3)CC2)cc1 (stereo not given)")
97.4
>>> observedresult("COc1ccc(CN2CN(C(C)C)CSC2=S)cc1")
80.1
>>> observedresult("CCC(=O)Nc1cccc(C(=O)/C=C/c2ccccc2)c1")
95.6
>>> observedresult("Cc1ncc2c(n1)-c1cc(F)ccc1SC2")
116
>>> observedresult("COc1cccc2c1Oc1ncccc1N(C(=O)CCC(=O)NCc1ccccc1Cl)C2")
103
>>> observedresult("CCc1nnc(NC(=O)c2ccc(S(=O)(=O)N3CCCC(C)C3)cc2)o1 (stereo not given)")
105
>>> observedresult("O=C(Nc1nc2ccc(F)cc2s1)c1ccccn1")
105
>>> observedresult("O=C1c2ccsc2SCCN1Cc1c(Cl)cccc1Cl")
101

###

# experimentNotes: yeast TOR pathway RPL19A-GFP modulators, primary screen, cell-based, S. cerevisiae, multiplex flow cytometry (AID 1862);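 also: lower values mimic rapamycin by blocking the RPL19A rise seen in DMSO cells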
# reportedConditions: S. cerevisiae RPL19A-GFP strain, flow cytometry fluorescence, 3 h; at 10 µM; stronger effect = lower value
Results filed as inconclusive are left out.
readout: percent of DMSO control GFP (%)

>>> observedresult("Cc1ccc2[nH]c3c(c2c1)CN(C)CC3")
102
>>> observedresult("CCOc1ccc(C(=O)Nc2ccc(N3CCN(C(C)=O)CC3)cc2)cc1[N+](=O)[O-]")
93
>>> observedresult("O=C(O)CCCCCCCC(=O)O")
100
>>> observedresult("CC1(C)OC2OC(C(=O)N/N=C/c3ccccc3F)C3OC(C)(C)OC3C2O1 (stereo not drawn)")
100
>>> observedresult("CCOC(=O)C1(CCCc2ccccc2)CCN(C2CCN(C(C)=O)CC2)CC1")
97.1
>>> observedresult("COC(=O)c1ccccc1OCCOCCOc1cccc2ccc(C)nc12")
106
>>> observedresult("CC(C)NCC(O)COc1ccc(CC(N)=O)cc1 (stereo not drawn)")
99.2
>>> observedresult("Cc1cc(C)c2c(CCl)cc(=O)oc2c1")
98.7

###

# experimentNotes: LAP4-GFP expression modulators in yeast, confirmation, cell-based, cherry picks, flow cytometry, mother/daughter gates (AID 2271);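 also: ratio of sample to DMSO plate mean so 100% equals DMSO level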
# reportedConditions: S. cerevisiae LAP4-GFP strain, 3 h, measured here: daughter cell gate response, at 10 µM, stronger effect = higher value, 100 means same as DMSO control
The reader will find reported GFP response relative to DMSO values listed item by item below.
readout: GFP response relative to DMSO (%)

>>> observedresult("Cc1ccc(C(=O)O)cc1N1C(=O)c2cccc3cc(Br)cc(c23)C1=O")
99.1
>>> observedresult("O=C(Nc1cccc(O)c1)c1ccccc1")
97.6
>>> observedresult("Cc1ccc(-c2nnn(CC(=O)N(CC(=O)NC3CCCC3)c3ccc(F)cc3)n2)o1")
95.9
>>> observedresult("N=C1/C(=C\\c2ccc(Br)o2)C(=O)N=C2SC(CC(=O)N3CCCCC3)=NN12")
103
>>> observedresult("Cc1cc(Cl)ccc1N=c1ssnc1Cl")
114
>>> observedresult("Cc1ccc(CCN2CC(C(=O)NCCCN(C)Cc3ccccc3)CC2=O)cc1 (configuration not stated)")
104
>>> observedresult("Cc1nn2c(N3CCOCC3)c3c(nc2c1-c1ccccc1)CCCC3")
96
>>> observedresult("[O-][n+]1cccc2c(Br)cc(Br)c(O)c21")
215
>>> observedresult("COc1ccc(CC2=C(O)c3ccccc3C(=O)C2=O)cc1")
113
>>> observedresult("N#C/C(=C/c1ccc(N2CCOCC2)o1)c1ccc(Br)cc1")
114
>>> observedresult("CC1=C/C(=N\\OS(=O)(=O)c2ccccc2)C(C)=CC1=O")
136
>>> observedresult("CCOC(=O)CS(=O)(=O)c1nc(-c2ccccc2)cc(C(F)(F)F)n1")
192
>>> observedresult("CSc1ccc(-c2cc(=O)c3ccccc3o2)cc1")
110
>>> observedresult("CCN1C(=O)/C(=C\\C(=O)c2cccs2)c2cc(Br)ccc21")
128
>>> observedresult("O=C(O)CCc1ccc(-c2ccc(Cl)cc2)o1")
128
>>> observedresult("O=C(COc1ccccc1)Nc1c2c(nn1-c1ccccc1)CS(=O)C2 (configuration not stated)")
99
>>> observedresult("O=S(=O)(/N=C(/Sc1ccccc1)c1ccccc1)c1ccccc1")
152

###

# experimentNotes: AGP1-GFP expression modulators, hit retest, confirmation, cell-based, flow cytometry, S. cerevisiae, cherry picks (AID 2273);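 also: median GFP channel fluorescence over the whole cell population gate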
# reportedConditions: S. cerevisiae AGP1-GFP strain, 3 h, at 10 µM
The reader will find reported GFP response, % of DMSO values listed item by item below.
readout: GFP response, % of DMSO (%)

>>> observedresult("Cc1ccc(S(=O)(=O)N2CCCC2C(=O)Oc2ccccc2)cc1 (configuration not stated)")
95.6
>>> observedresult("COc1ccc(N2C(=O)c3cccc4cccc(c34)C2=O)nn1")
98
>>> observedresult("Cc1ccc(NC(=O)c2ccccc2)cc1")
91.5
>>> observedresult("O=C(Nc1ccccc1)c1nnsc1S(=O)(=O)c1ccc(Cl)cc1")
87.7
>>> observedresult("CCOC(=O)C1(CCCc2ccccc2)CCN(C(=O)c2cc(C)nn2CC)CC1")
99.3
>>> observedresult("COc1cccc(-c2nnc(NC(=O)c3ccc(S(=O)(=O)N4CC(C)OC(C)C4)cc3)o2)c1 (configuration not stated)")
100
>>> observedresult("O=S1(=O)Nc2c(ccc3cccnc23)-c2ccccc21")
103

###

The reader will find reported GFP response relative to DMSO values listed item by item below.
# experimentNotes: LAP4-GFP expression modulators in yeast, confirmation, cell-based, cherry picks, flow cytometry, mother/daughter gates (AID 2271);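 also: ratio of sample to DMSO plate mean so 100% equals DMSO level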
# reportedConditions: S. cerevisiae LAP4-GFP strain, 3 h, measured here: daughter cell gate response, at 10 µM, stronger effect = higher value, 100 means same as DMSO control
readout: GFP response relative to DMSO (%)

>>> observedresult("Cc1nc(Sc2ccccc2)c(C#N)c(C)c1[N+](=O)[O-]")
92.8
>>> observedresult("O=C(O)CCC(=O)Nc1ccc(S(=O)(=O)c2ccc(NC(=O)CCC(=O)O)cc2)cc1")
97.5
>>> observedresult("CCC(CC)C(=O)Nc1cccc(/C(C)=N/NC(=O)c2ccccc2Cl)c1")
103
>>> observedresult("O=C(O)Cc1ccc2ccc3ccccc3c2c1")
105
>>> observedresult("COc1ccc(C(=O)Nc2cccc(C)c2)cc1")
108

###

# experimentNotes: modulators of MEP2-GFP levels in yeast, confirmation, S. cerevisiae, flow cytometry GFP, cherry picks (AID 2272);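 also: ratio of well signal to plate DMSO mean so 100% equals DMSO level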
# reportedConditions: S. cerevisiae MEP2-GFP strain, 3 h, at 10 µM, stronger effect = higher value
The source made the active and inactive calls.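 Rule for the calls: active = GFP response above 150% of the DMSO control; inconclusive = Fewer than 70 cells counted for a yeast strain; inactive = the rest.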
readout: GFP response vs DMSO

>>> observedresult("CCCn1c(=O)c(C(=O)Nc2ccccc2)c(O)c2ccccc21")
"99.3% (inactive)"
>>> observedresult("CCOC(=O)c1ccc(NC(=O)c2ccc3c(c2)C(=O)N(Cc2cccnc2)C3=O)cc1")
"102% (inactive)"
>>> observedresult("O=C(OCn1ncc(Br)c(Br)c1=O)c1ccccc1Cl")
"112% (inactive)"
>>> observedresult("Cc1ccccc1C(=O)Nc1ccccc1")
"96.2% (inactive)"
>>> observedresult("O=C1c2cccc3cccc(c23)C(=O)N1c1nncs1")
"102% (inactive)"
>>> observedresult("COc1ccc(OC)c(NC(=O)c2cccc3c2C(=O)N(C2CCCCC2)C3)c1")
"98.3% (inactive)"
